Tested on: ANKA strain of P. berghei
method: Single dose STI in vivo screen in infected mice
Design: species or system Plasmodium berghei
experimental-setup: single 10 mg/kg sc in 3% ethanol and 7% Tween 80; untreated 6-7 days
Structures can show the parent of a compound that is named as a salt.
hey, just use Yes if measured Survival (days) 10 mg/kg sc is less than 9 days, otherwise No

molecule	label-value
O=C(CN1C(=O)c2ccccc2C1=O)N1CCC2(CC1)OOC1(O2)C2CC3CC(C2)CC1C3 (stereo not shown)	No
CCOC(=O)CCC[C@H]1CC[C@]2(CC1)OOC1(O2)C2CC3CC(C2)CC1C3 (stereo partly shown)	Yes
CC(=O)NC[C@H]1CC[C@]2(CC1)OOC1(O2)C2CC3CC(C2)CC1C3 (stereo partly shown)	No
O=S(=O)(Cc1ccccc1)N1CCC2(CC1)OOC1(O2)C2CC3CC(C2)CC1C3 (stereo not shown)	Yes
Clc1ccc2c(NCCNC3CCC4(CC3)OOC3(O4)C4CC5CC(C4)CC3C5)ccnc2c1 (stereo not shown)	No
N#Cc1ccc(C2(c3ccccc3)OOC3(O2)C2CC4CC(C2)CC3C4)cc1 (stereo not shown)	Yes
N[C@H]1CC[C@]2(CC1)OOC1(O2)C2CC3CC(C2)CC1C3 (stereo partly shown) [OZ137, hydrochloride]	Yes
OCC1(CO)COC2(CCC3(CC2)OOC2(O3)C3CC4CC(C3)CC2C4)OC1 (stereo not shown)	Yes
O=C1c2ccccc2C(=O)N1CC[C@H]1CC[C@]2(CC1)OOC1(O2)C2CC3CC(C2)CC1C3 (stereo partly shown)	Yes
Cc1ccc(NC(=O)N2CCC3(CC2)OOC2(O3)C3CC4CC(C3)CC2C4)cc1 (stereo not shown)	No
NCC1(c2ccccc2)CCC2(CC1)OOC1(O2)C2CC3CC(C2)CC1C3 (stereo not shown) [OZ117, hydrochloride]	Yes
COC(=O)c1ncn(C[C@H]2CC[C@]3(CC2)OOC2(O3)C3CC4CC(C3)CC2C4)n1 (stereo partly shown)	Yes
CS(=O)(=O)c1ccc([C@H]2CC[C@]3(CC2)OOC2(O3)C3CC4CC(C3)CC2C4)cc1 (stereo partly shown)	No
NC(=O)C[C@H]1CC[C@]2(CC1)OOC1(O2)C2CC3CC(C2)CC1C3 (stereo partly shown)	Yes
c1cc(CN2CCC3(CC2)OOC2(O3)C3CC4CC(C3)CC2C4)ccn1 (stereo not shown)	No
O=C(NO)[C@H]1CC[C@]2(CC1)OOC1(O2)C2CC3CC(C2)CC1C3 (stereo partly shown)	Yes
O=C1c2ccccc2C(=O)N1C[C@H]1CC[C@@]2(CC1)OOC1(O2)C2CC3CC(C2)CC1C3 (stereo partly shown)	Yes
COC(=O)c1ncnn1C[C@H]1CC[C@]2(CC1)OOC1(O2)C2CC3CC(C2)CC1C3 (stereo partly shown)	Yes
O=C1OC2(CCC3(CC2)OOC2(O3)C3CC4CC(C3)CC2C4)c2ccccc21 (stereo not shown)	No
NC(=O)OC1CCC2(CC1)OOC1(O2)C2CC3CC(C2)CC1C3 (stereo not shown)	Yes
O=S(=O)(C[C@H]1CC[C@]2(CC1)OOC1(O2)C2CC3CC(C2)CC1C3)c1ccccc1 (stereo partly shown)	No
COCC(=O)N1CCC2(CC1)OOC1(O2)C2CC3CC(C2)CC1C3 (stereo not shown)	Yes
O=C(OC1CCC2(CC1)OOC1(O2)C2CC3CC(C2)CC1C3)n1ccnc1 (stereo not shown)	No
O=C(Nc1ccccc1)N1CCC2(CC1)OOC1(O2)C2CC3CC(C2)CC1C3 (stereo not shown)	No
CCOC(=O)C1(C(=O)OCC)COC2(CCC3(CC2)OOC2(O3)C3CC4CC(C3)CC2C4)OC1 (stereo not shown)	Yes
O=C(NC[C@H]1CC[C@]2(CC1)OOC1(O2)C2CC3CC(C2)CC1C3)c1ccccc1C(=O)NC[C@H]1CC[C@]2(CC1)OOC1(O2)C2CC3CC(C2)CC1C3 (stereo partly shown)	Yes
NC(=O)N[C@H]1CC[C@]2(CC1)OOC1(O2)C2CC3CC(C2)CC1C3 (stereo partly shown)	Yes
NC(=O)CNC[C@H]1CC[C@]2(CC1)OOC1(O2)C2CC3CC(C2)CC1C3 (stereo partly shown)	No
O=C(C[C@H]1CC[C@]2(CC1)OOC1(O2)C2CC3CC(C2)CC1C3)N1CCN(c2ccccc2)CC1 (stereo partly shown)	Yes
CCOC(=O)c1ccc(C2(c3ccc(C(=O)OCC)cc3)OOC3(O2)C2CC4CC(C2)CC3C4)cc1 (stereo not shown)	Yes
CC(=O)Nc1ccc(S(=O)(=O)N2CCC3(CC2)OOC2(O3)C3CC4CC(C3)CC2C4)cc1 (stereo not shown)	No
O=C(O)C1(c2ccccc2)CCC2(CC1)OOC1(O2)C2CC3CC(C2)CC1C3 (stereo not shown)	Yes
c1cn(CC[C@H]2CC[C@]3(CC2)OOC2(O3)C3CC4CC(C3)CC2C4)cn1 (stereo partly shown)	No

---

Here the recorded IC50 is given for each entry.
Tested on: chloroquine-resistant K1 strain of P. falciparum
method: In vitro antimalarial semiautomated microdilution assay ([3H]-hypoxanthine incorporation), K1 strain
Assay type: cell-based, Plasmodium falciparum
experimental-setup: Plasmodium falciparum, K1, 72 h, read-out: IC50 (ng/ml) K1, chloroquine-resistant K1 strain, 72 h incubation
Structures can show the parent of a compound that is named as a salt.
measured-metric: IC50 (ng/mL)

                                   molecule                          target_or_system  measured_metric  readout_units  observed
0  COC(=O)c1ccc(C2(c3ccccc3)OOC3(O2)C2CC4CC(C2)CC3C4)cc1 (stereo not drawn)  chloroquine-resistant K1 strain of P. falciparum             IC50          ng/mL        10
1  c1ncn(C[C@H]2CC[C@]3(CC2)OOC2(O3)C3CC4CC(C3)CC2C4)n1 (stereo partly drawn)  chloroquine-resistant K1 strain of P. falciparum             IC50          ng/mL         1
2  N=C(N)NC[C@H]1CC[C@]2(CC1)OOC1(O2)C2CC3CC(C2)CC1C3 (stereo partly drawn) [OZ237, hydrochloride]  chloroquine-resistant K1 strain of P. falciparum             IC50          ng/mL       5.7
3  CC(C)(O)[C@H]1CC[C@]2(CC1)OOC1(O2)C2CC3CC(C2)CC1C3 (stereo partly drawn)  chloroquine-resistant K1 strain of P. falciparum             IC50          ng/mL        68
4  NCC[C@H]1CC[C@]2(CC1)OOC1(O2)C2CC3CC(C2)CC1C3 (stereo partly drawn) [OZ229, hydrochloride]  chloroquine-resistant K1 strain of P. falciparum             IC50          ng/mL      0.24
5  c1ccc(CNC2CCC3(CC2)OOC2(O3)C3CC4CC(C3)CC2C4)cc1 (stereo not drawn) [OZ160, hydrochloride]  chloroquine-resistant K1 strain of P. falciparum             IC50          ng/mL       0.7

---

Test system: ANKA strain of P. berghei
method: Single dose STI in vivo screen in infected mice
Parameters: species or system Plasmodium berghei
experimental-setup: single 10 mg/kg po in SSV; untreated 6-7 days
Output Met for records whose Survival (days) 10 mg/kg SSV po is lower than 7 days, Not met for records at or above 7 days.

molecule	label-value
CO[C@H]1O[C@@H]2O[C@@]3(C)CC[C@H]4[C@H](C)CC[C@@H]([C@H]1C)[C@@]24OO3 [AM, artemether, reference compound]	Not met
NC1(C(=O)NC[C@H]2CC[C@]3(CC2)OO[C@]2(O3)C3CC4CC(C3)CC2C4)CCCCC1 [OZ333]	Not met
O=C(N1CCOCC1)N1CCC2(CC1)OOC1(O2)C2CC3CC(C2)CC1C3 (stereo not shown) [OZ188]	Not met
O=C(O)c1ccccc1C(=O)N1CCC2(CC1)OOC1(O2)C2CC3CC(C2)CC1C3 (stereo not shown) [OZ132]	Met
C(CNC1CCC2(CC1)OOC1(O2)C2CC3CC(C2)CC1C3)CN1CCOCC1 (stereo not shown) [OZ161]	Met
NC(=O)CNC(=O)C[C@H]1CC[C@]2(CC1)OO[C@]1(O2)C2CC3CC(C2)CC1C3 [OZ306]	Not met
C1C2CC3CC1CC(C2)C31OO[C@]2(CC[C@@H](CN(C[C@H]3CC[C@]4(CC3)OOC3(O4)C4CC5CC(C4)CC3C5)C3CC3)CC2)O1 (stereo partly shown) [OZ254]	Met
CN1CCN(C(=O)C[C@H]2CC[C@]3(CC2)OOC2(O3)C3CC4CC(C3)CC2C4)CC1 (stereo partly shown) [OZ227]	Not met
CC(C)(O)C[C@H]1CC[C@]2(CC1)OOC1(O2)C2CC3CC(C2)CC1C3 (stereo partly shown) [OZ205]	Not met
O=C(O)c1ccc([C@H]2CC[C@]3(CC2)OOC2(O3)C3CC4CC(C3)CC2C4)cc1 (stereo partly shown) [OZ165]	Met
O=C1c2ccccc2C(=O)N1CC[C@H]1CC[C@]2(CC1)OOC1(O2)C2CC3CC(C2)CC1C3 (stereo partly shown) [OZ215]	Met
O=C(C[C@H]1CC[C@]2(CC1)OOC1(O2)C2CC3CC(C2)CC1C3)NO (stereo partly shown) [OZ175]	Not met
O=C1CN(C(=O)C[C@H]2CC[C@]3(CC2)OO[C@]2(O3)C3CC4CC(C3)CC2C4)CCN1 [OZ296]	Not met
O=CNCC(=O)NC[C@H]1CC[C@]2(CC1)OO[C@]1(O2)C2CC3CC(C2)CC1C3 [OZ322]	Not met
O=C(NC[C@H]1CC[C@]2(CC1)OO[C@]1(O2)C2CC3CC(C2)CC1C3)c1ccccn1 [OZ304]	Not met
C[C@H](N)C(=O)NC[C@H]1CC[C@]2(CC1)OO[C@]1(O2)C2CC3CC(C2)CC1C3 [OZ335]	Not met
O=C(O)c1ccc(C[C@H]2CC[C@]3(CC2)OOC2(O3)C3CC4CC(C3)CC2C4)cc1 (stereo partly shown) [OZ214]	Not met
NC(=O)c1ccc(NC[C@H]2CC[C@]3(CC2)OOC2(O3)C3CC4CC(C3)CC2C4)cc1 (stereo partly shown) [OZ286]	Not met
CN(C)C[C@H]1CC[C@]2(CC1)OOC1(O2)C2CC3CC(C2)CC1C3 (stereo partly shown) [OZ232]	Not met
c1csc(NC[C@H]2CC[C@]3(CC2)OOC2(O3)C3CC4CC(C3)CC2C4)n1 (stereo partly shown) [OZ252]	Not met
CCOC(=O)C1(C(=O)OCC)COC2(CCC3(CC2)OOC2(O3)C3CC4CC(C3)CC2C4)OC1 (stereo not shown) [OZ120]	Met
Cc1ccc(NC(=O)N2CCC3(CC2)OOC2(O3)C3CC4CC(C3)CC2C4)cc1 (stereo not shown) [OZ142]	Met
c1ccc(C[C@H]2CC[C@]3(CC2)OOC2(O3)C3CC4CC(C3)CC2C4)cc1 (stereo partly shown) [OZ156]	Not met
c1ccc(CN2CCC3(CC2)OOC2(O3)C3CC4CC(C3)CC2C4)cc1 (stereo not shown) [OZ220]	Met

The reported measurements were obtained from patent US6825230B2.
